- assay system: furin, P09958;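 further: purified furin at 1:10 enzyme:substrate in 50 mM HEPES pH 7.5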
- Sequence (P09958 whole entry): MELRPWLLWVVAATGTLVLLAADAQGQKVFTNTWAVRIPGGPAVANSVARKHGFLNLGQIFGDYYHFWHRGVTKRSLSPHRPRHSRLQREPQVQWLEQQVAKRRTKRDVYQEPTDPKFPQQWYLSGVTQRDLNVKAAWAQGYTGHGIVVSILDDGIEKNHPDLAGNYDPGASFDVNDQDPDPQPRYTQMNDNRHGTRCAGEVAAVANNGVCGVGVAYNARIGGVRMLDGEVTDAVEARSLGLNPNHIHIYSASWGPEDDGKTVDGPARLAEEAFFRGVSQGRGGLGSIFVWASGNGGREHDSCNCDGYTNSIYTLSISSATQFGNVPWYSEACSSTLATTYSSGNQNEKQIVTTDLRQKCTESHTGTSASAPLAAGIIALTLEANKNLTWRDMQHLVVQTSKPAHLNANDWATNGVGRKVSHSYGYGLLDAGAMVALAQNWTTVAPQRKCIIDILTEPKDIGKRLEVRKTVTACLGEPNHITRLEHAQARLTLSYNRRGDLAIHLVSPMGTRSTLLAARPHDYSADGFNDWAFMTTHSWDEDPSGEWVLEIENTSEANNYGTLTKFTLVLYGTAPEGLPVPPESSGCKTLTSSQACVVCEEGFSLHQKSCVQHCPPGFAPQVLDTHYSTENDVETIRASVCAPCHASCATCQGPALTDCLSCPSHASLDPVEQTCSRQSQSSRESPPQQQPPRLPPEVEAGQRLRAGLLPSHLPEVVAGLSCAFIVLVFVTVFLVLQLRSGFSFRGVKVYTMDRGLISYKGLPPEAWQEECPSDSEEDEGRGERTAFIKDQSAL
- procedure details: furin cleavage Z-score vs untreated control; higher = more cleavage, active = 3.5 or more, inactive = 1 or less, 8 variable residues between constant flanks
- experimental conditions: 15 min
The list shows a part of the results. The true hit rate is not given.
For each record, write down the corresponding furin cleavage Z-score.
Numbers only.

# count of solved cases: 2
CAELGDDGRTAGNASASA [FS-1627]
-0.821
CARQRRGTGAAGNASASA [FS-2762]
4.54

// input: 8 sequences below; output: furin cleavage Z-score for each
1. CAQLLRKKRPAGNASASA [FS-479]
2. CAPPPRKKRTAGNASASA [HC1323]
3. CAVSKGWRLLAGNASASA [HC670]
4. CARVCCSMSYAGNASASA [HC1993]
5. CAVYNHLTPLAGNASASA [HC635]
6. CARQRRLLAAAGNASASA [FS-3042]
7. CAMALYDVVTAGNASASA [HC1457]
8. CASVPAEILRAGNASASA [HC1295]

1.54
14.5
-0.975
0.796
0.0646
-0.921
-0.594
1.63
